test: Approximate solubility of amorphous 3-DM free base starting material in 27 solvent systems at RT; type: physicochemical; conditions: organic solvent or mixture, thermodynamic from solid, Acetone/n-Heptane (1:15), RT
value.kind: solubility

Ask: Any idea what solubility was measured for [2H][C@@]12C[C@H](/C(=C\OC)C(=O)OC)[C@H](CC)CN1CCc1c2[nH]c2cccc(OC)c12 [3-DM free base, 3-deuteromitragynine] ?
Result: 4000 to 6700 µg/mL

* * *

assay: Approximate solubility of amorphous 3-DM free base starting material in 27 solvent systems at RT; type: physicochemical; conditions: water, thermodynamic from solid, H2O, RT
value.kind: solubility

Ask: Any idea what solubility was measured for [2H][C@@]12C[C@H](/C(=C\OC)C(=O)OC)[C@H](CC)CN1CCc1c2[nH]c2cccc(OC)c12 [3-DM free base, 3-deuteromitragynine] ?
Result: < 2300 µg/mL

* * *

format: physicochemical; conditions: acetone/n-heptane (1:1) v/v, organic solvent or mixture; read-out: Approximate solubility
value.kind: solubility

Ask: Any idea what solubility was measured for [2H][C@@]12C[C@H](/C(=C\OC)C(=O)OC)[C@H](CC)CN1CCc1c2[nH]c2cccc(OC)c12 [3-DM free base, 3-deuteromitragynine] ?
Result: > 42 mg/mL

* * *

test: Approximate solubility of amorphous 3-DM free base starting material in 27 solvent systems at RT; type: physicochemical; details: organic solvent or mixture, thermodynamic from solid, MTBE, RT
value.kind: solubility

Ask: Any idea what solubility was measured for [2H][C@@]12C[C@H](/C(=C\OC)C(=O)OC)[C@H](CC)CN1CCc1c2[nH]c2cccc(OC)c12 [3-DM free base, 3-deuteromitragynine] ?
Result: > 46 mg/mL

* * *

test: Approximate solubility of amorphous 3-DM free base starting material in 27 solvent systems at RT; type: physicochemical; details: organic solvent or mixture, thermodynamic from solid, 1,4-dioxane, RT
value.kind: solubility

Ask: Any idea what solubility was measured for [2H][C@@]12C[C@H](/C(=C\OC)C(=O)OC)[C@H](CC)CN1CCc1c2[nH]c2cccc(OC)c12 [3-DM free base, 3-deuteromitragynine] ?
Result: > 42 mg/mL

* * *

test: Approximate solubility of amorphous 3-DM free base starting material in 27 solvent systems at RT; format: physicochemical; settings: organic solvent or mixture, thermodynamic from solid, THF, RT
value.kind: solubility

Ask: Any idea what solubility was measured for [2H][C@@]12C[C@H](/C(=C\OC)C(=O)OC)[C@H](CC)CN1CCc1c2[nH]c2cccc(OC)c12 [3-DM free base, 3-deuteromitragynine] ?
Result: > 40 mg/mL

* * *

experiment: Approximate solubility of amorphous 3-DM free base starting material in 27 solvent systems at RT; assay type: physicochemical; details: organic solvent or mixture, thermodynamic from solid, 2-MeTHF, RT
value.kind: solubility

Ask: Any idea what solubility was measured for [2H][C@@]12C[C@H](/C(=C\OC)C(=O)OC)[C@H](CC)CN1CCc1c2[nH]c2cccc(OC)c12 [3-DM free base, 3-deuteromitragynine] ?
Result: > 48 mg/mL

* * *

experiment: Approximate solubility of amorphous 3-DM free base starting material in 27 solvent systems at RT; format: physicochemical; conditions: organic solvent or mixture, thermodynamic from solid, n-Heptane, RT
value.kind: solubility

Ask: Any idea what solubility was measured for [2H][C@@]12C[C@H](/C(=C\OC)C(=O)OC)[C@H](CC)CN1CCc1c2[nH]c2cccc(OC)c12 [3-DM free base, 3-deuteromitragynine] ?
Result: < 2300 µg/mL

* * *

assay: Approximate solubility of amorphous 3-DM free base starting material in 27 solvent systems at RT; format: physicochemical; settings: organic solvent or mixture, thermodynamic from solid, DMAc, RT
value.kind: solubility

Ask: Any idea what solubility was measured for [2H][C@@]12C[C@H](/C(=C\OC)C(=O)OC)[C@H](CC)CN1CCc1c2[nH]c2cccc(OC)c12 [3-DM free base, 3-deuteromitragynine] ?
Result: > 46 mg/mL

* * *

Assay: Approximate solubility of amorphous 3-DM free base starting material in 27 solvent systems at RT
Format: physicochemical
Details: organic solvent or mixture, thermodynamic from solid, IPA/H2O (4:1), RT
Description: The approximate solubility of the free base starting material was determined in 27 solvent systems at RT. Approximate 2 mg of material was added into a 3-mL glass vial. […] The solubility results summarized in Table 10 were used to guide the solvent selection in salt screening design.
value.kind: solubility

Ask: Any idea what solubility was measured for [2H][C@@]12C[C@H](/C(=C\OC)C(=O)OC)[C@H](CC)CN1CCc1c2[nH]c2cccc(OC)c12 [3-DM free base, 3-deuteromitragynine] ?
Result: 7 to 21 mg/mL

* * *

assay: Approximate solubility of amorphous 3-DM free base starting material in 27 solvent systems at RT; assay type: physicochemical; settings: organic solvent or mixture, thermodynamic from solid, EtOAc, RT
value.kind: solubility

Ask: Any idea what solubility was measured for [2H][C@@]12C[C@H](/C(=C\OC)C(=O)OC)[C@H](CC)CN1CCc1c2[nH]c2cccc(OC)c12 [3-DM free base, 3-deuteromitragynine] ?
Result: > 40 mg/mL

* * *

Test: Approximate solubility of amorphous 3-DM free base starting material in 27 solvent systems at RT
Type: physicochemical
Details: organic solvent or mixture, thermodynamic from solid, IPAc, RT
Procedure: The approximate solubility of the free base starting material was determined in 27 solvent systems at RT. Approximate 2 mg of material was added into a 3-mL glass vial. […] The solubility results summarized in Table 10 were used to guide the solvent selection in salt screening design.
value.kind: solubility

Ask: Any idea what solubility was measured for [2H][C@@]12C[C@H](/C(=C\OC)C(=O)OC)[C@H](CC)CN1CCc1c2[nH]c2cccc(OC)c12 [3-DM free base, 3-deuteromitragynine] ?
Result: > 42 mg/mL

* * *

assay: Approximate solubility of amorphous 3-DM free base starting material in 27 solvent systems at RT; type: physicochemical; conditions: organic solvent or mixture, thermodynamic from solid, DMSO, RT
value.kind: solubility

Ask: Any idea what solubility was measured for [2H][C@@]12C[C@H](/C(=C\OC)C(=O)OC)[C@H](CC)CN1CCc1c2[nH]c2cccc(OC)c12 [3-DM free base, 3-deuteromitragynine] ?
Result: > 34 mg/mL

* * *

assay: Approximate solubility of amorphous 3-DM free base starting material in 27 solvent systems at RT; format: physicochemical; settings: organic solvent or mixture, thermodynamic from solid, Acetone/n-Heptane (1:1), RT
value.kind: solubility

Ask: Any idea what solubility was measured for [2H][C@@]12C[C@H](/C(=C\OC)C(=O)OC)[C@H](CC)CN1CCc1c2[nH]c2cccc(OC)c12 [3-DM free base, 3-deuteromitragynine] ?
Result: > 38 mg/mL

* * *

assay: Approximate solubility of amorphous 3-DM free base starting material in 27 solvent systems at RT; assay type: physicochemical; details: organic solvent or mixture, thermodynamic from solid, EtOH, RT
value.kind: solubility

Ask: Any idea what solubility was measured for [2H][C@@]12C[C@H](/C(=C\OC)C(=O)OC)[C@H](CC)CN1CCc1c2[nH]c2cccc(OC)c12 [3-DM free base, 3-deuteromitragynine] ?
Result: > 38 mg/mL

* * *

test: Approximate solubility of amorphous 3-DM free base starting material in 27 solvent systems at RT; format: physicochemical; details: organic solvent or mixture, thermodynamic from solid, DCM, RT
value.kind: solubility

Ask: Any idea what solubility was measured for [2H][C@@]12C[C@H](/C(=C\OC)C(=O)OC)[C@H](CC)CN1CCc1c2[nH]c2cccc(OC)c12 [3-DM free base, 3-deuteromitragynine] ?
Result: > 42 mg/mL

* * *

format: physicochemical; settings: EtOAc, organic solvent or mixture; read-out: Approximate solubility
value.kind: solubility

Ask: Any idea what solubility was measured for [2H][C@@]12C[C@H](/C(=C\OC)C(=O)OC)[C@H](CC)CN1CCc1c2[nH]c2cccc(OC)c12 [3-DM free base, 3-deuteromitragynine] ?
Result: > 40 mg/mL
